Tested on: L. donovani HU3 strain in mouse peritoneal macrophages
Test: Assay for inhibition of parasitemia of Leishmania donovani in mouse macrophages (SYBR Green nuclei count, high-content imaging)
Type: cell-based
Settings: Leishmania donovani, Peritoneal macrophage, L. donovani in mouse peritoneal macrophages; read-out: L. donovani in Mouse Macrophages EC50
measured.endpoint: EC50 (nM)
Form entry: value (nM) — number only.

1) Cc1nc(C)c(C(=O)Nc2ccc(F)c(-n3cc4cc(CC5CCC5)cnc4n3)c2)o1 :: 85

Asked: If you can, please state the reported EC50 value of CC(C)c1cnc2nn(-c3cc(NC(=O)C4CC4)ccc3F)cc2c1 .
Given back: 310

###

Test system: Trypanosoma cruzi amastigotes cultured in 3T3 fibroblast cells
Test: Assay for growth inhibition of kinetoplastid parasite Trypanosoma cruzi (beta-galactosidase Tulahuen strain, CPRG readout)
Type: cell-based
Settings: Trypanosoma cruzi, Fibroblast, T. cruzi amastigotes in 3T3 fibroblast cells; read-out: Buckner infectious T. cruzi EC50
measured.endpoint: EC50 (µM)
Form entry: value (µM) — number only.

1. CCC(C)(C)c1cnc2nn(-c3cc(NC(=O)c4oc(C)nc4C)ccc3F)cc2c1 :: 1.2

Asked: Give the reported EC50 for O=C(Nc1ccc(F)c(-n2cc3cc(N4CC5(CCC5)C4)cnc3n2)c1)N1CC(F)C1 (system: Trypanosoma cruzi amastigotes cultured in 3T3 fibroblast cells).
Given back: 0.082

Asked: Give the reported EC50 for O=C(Nc1ccc(F)c(-n2cc3cc(-c4ccccn4)cnc3n2)c1)[C@@H]1C[C@H]1F (single isomer, unassigned) (system: Trypanosoma cruzi amastigotes cultured in 3T3 fibroblast cells).
Given back: 0.005

Asked: Give the reported EC50 for Cc1cccnc1-c1cnc2nn(-c3cc(NC(=O)C4=CC(C)(C)C4)ccc3F)cc2c1 (system: Trypanosoma cruzi amastigotes cultured in 3T3 fibroblast cells).
Given back: 0.016

Asked: Give the reported EC50 for O=C(Nc1ccc(F)c(-n2cc3cc(Br)cnc3n2)c1)N1CC2(CC2)C1 (system: Trypanosoma cruzi amastigotes cultured in 3T3 fibroblast cells).
Given back: 0.05

Asked: Give the reported EC50 for CC(C)c1cnc2nn(-c3cc(NC(=O)c4ccccn4)ccc3F)cc2c1 (system: Trypanosoma cruzi amastigotes cultured in 3T3 fibroblast cells).
Given back: 0.059

Asked: Give the reported EC50 for O=C(Nc1ccc(F)c(-n2cc3cc(N4CC(F)C4)cnc3n2)c1)N1CC(F)(F)C1 (system: Trypanosoma cruzi amastigotes cultured in 3T3 fibroblast cells).
Given back: 0.01

Asked: Give the reported EC50 for O=C(Nc1ccc(Cl)c(-n2cc3cc(-c4ccccn4)cnc3n2)c1)N1CCC1 (system: Trypanosoma cruzi amastigotes cultured in 3T3 fibroblast cells).
Given back: 0.003

Asked: Give the reported EC50 for CC(C)CCc1cnc2nn(-c3cc(NC(=O)N4CC[C@@H](F)C4)ccc3F)cc2c1 (system: Trypanosoma cruzi amastigotes cultured in 3T3 fibroblast cells).
Given back: 0.013

###

Tested on: Trypanosoma cruzi amastigotes cultured in 3T3 fibroblast cells
Assay: Assay for growth inhibition of kinetoplastid parasite Trypanosoma cruzi (beta-galactosidase Tulahuen strain, CPRG readout)
Type: cell-based
Settings: Trypanosoma cruzi, Fibroblast, T. cruzi amastigotes in 3T3 fibroblast cells; read-out: Buckner infectious T. cruzi EC50
measured.endpoint: pEC50
Expect pEC50 as a plain number equal to -log10 of the molar concentration.

1. O=C(Nc1ccc(F)c(-n2cc3cc(CC4CCC4)cnc3n2)c1)N1CC(F)C1 [Compound 26] :: 7.92
2. O=C(Nc1ccc(F)c(-n2cc3cc(C4CCOCC4)cnc3n2)c1)N1CC[C@@H](F)C1 [Compound 150] :: 7.68
3. O=C(Nc1ccc(F)c(-n2cc3cc(N4C[C@@H]5C[C@H]4CO5)cnc3n2)c1)N1CC(F)C1 [Compound 172] :: 7.48
4. O=C(Nc1ccc(F)c(-n2cc3cc(N4CCC4)cnc3n2)c1)N1CC(F)C1 [Compound 147] :: 8.32
5. CC(C)c1cnc2nn(-c3cc(NC(=O)N4CCC5(CC5)C4)ccc3F)cc2c1 [Compound 220] :: 8.22
6. CC(C)Cc1cnc2nn(-c3cc(NC(=O)N4CC(F)(F)C4)ccc3F)cc2c1 [Compound 8] :: 8.35
7. CC(C)c1cnc2nn(-c3cc(NC(=O)CCC(F)(F)F)ccc3F)cc2c1 [Compound 173] :: 6.85

Asked: If you can, please state the reported pEC50 value of CCC(C)(C)c1cnc2nn(-c3cc(NC(=O)c4ccco4)ccc3F)cc2c1 [Compound 60] .
Given back: 6.36

###

Known pEC50 of a selection of compounds
System: L. donovani HU3 strain in mouse peritoneal macrophages
Assay: Assay for inhibition of parasitemia of Leishmania donovani in mouse macrophages (SYBR Green nuclei count, high-content imaging)
Type: cell-based
Details: Leishmania donovani, Peritoneal macrophage, L. donovani in mouse peritoneal macrophages; read-out: L. donovani in Mouse Macrophages EC50
Expect pEC50 as a plain number equal to -log10 of the molar concentration.

1. O=C(Nc1ccnc(-n2cc3cc(-c4ccccn4)cnc3n2)c1)N1CC(F)C1 :: 7.62
2. O=C(Nc1ccc(F)c(-n2cc3cc(N4CCOCC4)cnc3n2)c1)N1CC(F)(F)C1 :: 8.33
3. O=C(Nc1ccc(F)c(-n2cc3cc(C4CCNCC4)cnc3n2)c1)N1CC(F)C1 :: 4.75
4. CCC(C)c1cnc2nn(-c3cc(NC(=O)c4oc(C)nc4C)ccc3F)cc2c1 (stereo not shown) :: 6.05
5. O=C(Nc1ccnc(-n2cc3cc(Br)cnc3n2)c1)N1CC[C@@H](F)C1 :: 7.06

Asked: Give the reported pEC50 for Cc1nc(C)c(C(=O)Nc2ccc(F)c(-n3cc4cc(NC(=O)OC(C)C)cnc4n3)c2)o1 (system: L. donovani HU3 strain in mouse peritoneal macrophages).
Given back: 7.77

Asked: Give the reported pEC50 for O=C(Nc1ccc(F)c(-n2cc3cc(C4CC4)cnc3n2)c1)N1CC[C@@H](F)C1 (system: L. donovani HU3 strain in mouse peritoneal macrophages).
Given back: 8.22

Asked: Give the reported pEC50 for CC(C)c1cnc2nn(-c3cc(NC(=O)CC4CCC4)ccc3F)cc2c1 (system: L. donovani HU3 strain in mouse peritoneal macrophages).
Given back: 5.33

Asked: Give the reported pEC50 for O=C(Nc1ccc(F)c(-n2cc3cc(N4CC(F)(F)C4)cnc3n2)c1)[C@H]1C[C@@H]1F (single isomer, unassigned) (system: L. donovani HU3 strain in mouse peritoneal macrophages).
Given back: 6.51

Asked: Give the reported pEC50 for CCC(C)(C)c1cnc2nn(-c3cc(NC(=O)N4CC(F)(F)C4)ccc3F)cc2c1 (system: L. donovani HU3 strain in mouse peritoneal macrophages).
Given back: 6.28

Asked: Give the reported pEC50 for [2H]C([2H])([2H])N(c1cnc2nn(-c3cc(NC(=O)N4CCC4)ccc3F)cc2c1)C([2H])([2H])[2H] (system: L. donovani HU3 strain in mouse peritoneal macrophages).
Given back: 8.40

Asked: Give the reported pEC50 for O=C(Nc1ccc(F)c(-n2cc3cc(-c4ccccn4)cnc3n2)c1)N1CCC1 (system: L. donovani HU3 strain in mouse peritoneal macrophages).
Given back: 8.70

###

System: Trypanosoma cruzi amastigotes cultured in 3T3 fibroblast cells
Assay: Assay for growth inhibition of kinetoplastid parasite Trypanosoma cruzi (beta-galactosidase Tulahuen strain, CPRG readout)
Assay type: cell-based
Conditions: Trypanosoma cruzi, Fibroblast, T. cruzi amastigotes in 3T3 fibroblast cells; read-out: Buckner infectious T. cruzi EC50
Source text: Assay for Growth Inhibition of Kinetoplastid Parasite Trypanosoma cruzi Compounds of the invention can be assayed for inhibitor activity against Trypanosoma cruzi amastigotes cultured in 3T3 fibroblast cells. The assay is done using the mammalian stage (amastigotes) of T. cruzi that replicates in the intracellular space of host cells. […] This allows for a colorimetric readout by using the substrate CPRG and an absorbance plate reader. […]
measured.endpoint: pEC50
Expect pEC50 as a plain number equal to -log10 of the molar concentration.

Solved cases below.
1. O=C(Nc1ccc(F)c(-n2cc3cc(N4CC5(CCO5)C4)cnc3n2)c1)N1CC(F)C1 :: 7.70
2. CC(C)(C)Cc1cnc2nn(-c3cc(NC(=O)N4CC(F)C4)ccc3F)cc2c1 :: 8.77
3. CC(C)c1cnc2nn(-c3cc(NC(=O)c4ncc(F)cc4F)ccc3F)cc2c1 :: 7.66

Now consider a different compound.
Asked: If you can, please state the reported pEC50 value of CC(C)OC(=O)Nc1cnc2nn(-c3cc(NC(=O)N4CC[C@@H](F)C4)ccc3F)cc2c1 .
Given back: 6.77

###

Known pEC50 of a selection of molecules
Test system: L. donovani HU3 strain in mouse peritoneal macrophages
Test: Assay for inhibition of parasitemia of Leishmania donovani in mouse macrophages (SYBR Green nuclei count, high-content imaging)
Assay type: cell-based
Details: Leishmania donovani, Peritoneal macrophage, L. donovani in mouse peritoneal macrophages; read-out: L. donovani in Mouse Macrophages EC50
Expect pEC50 as a plain number equal to -log10 of the molar concentration.

Solved cases below.
1) CC(C)c1cnc2nn(-c3cc(NC(=O)C4(C(F)(F)F)CC4)ccc3F)cc2c1 [Compound 209] :: 6.42
2) O=C(Nc1ccc(F)c(-n2cc3cc(C4CCC4)cnc3n2)c1)N1CCC1 [Compound 93] :: 7.49
3) O=C(Nc1ccc(F)c(-n2cc3cc(N4CC(F)(F)C4)cnc3n2)c1)N1CC(F)(F)C1 [Compound 299] :: 8.15
4) O=C(Nc1ccc(F)c(-n2cc3cc(N4C[C@@H](F)[C@H](F)C4)cnc3n2)c1)N1CC(F)C1 [Compound 234] :: 8.52
5) O=C(Nc1ccc(F)c(-n2cc3cc(N4CC(F)(F)C4)cnc3n2)c1)N1CCC1 [Compound 290] :: 8.40
6) CC(C)c1cnc2nn(-c3cc(NC(=O)CCC(F)(F)F)ccc3F)cc2c1 [Compound 173] :: 6.30

Asked: If you can, please state the reported pEC50 value of O=C(Nc1ccc(F)c(-n2cc3cc(C4CCN4)cnc3n2)c1)N1CC(F)C1 (centres unmarked) [Compound 264] .
Given back: 4.86

Asked: If you can, please state the reported pEC50 value of O=C(Nc1ccc(F)c(-n2cc3cc(-c4ccccn4)cnc3n2)c1)N1CCCC1 [Compound 336] .
Given back: 8.40

Recorded values, source patent US11384078B2.
